FYI, the data here is from paper PMC4844972.

Target: the molecule itself
Assay: native gel or EMSA; 8% native gel of the purified proteins, to analyse their oligomerization statuses
quantity kind: binding result

Suppose we examine the protein KaiA-2-1 (natural protein, Synechococcus elongatus PCC 7942, KaiA, Synechococcus elongatus PCC 7942, with the mutation of Cluster II; The oligomer state is said to be the same as that of the wild type; also called KaiA mutant of Cluster II) MLSQIAICIWVESTAILQDCQRALSADRYQLQVCESGEMLLEYAQTHRDQIDCLILVAANPSFRAVVQQLCFEGVVVPAIVVGDRDSEDPDEPAKEQLYHSAELHLGIHQLEQLPYQVDAALAEFLRLAPVETMADHIMLMGANHDPELSSQQRDLAQRLQERLGYLGVYYKRDPDRFLRNLPAYESQKLHQAMQTSYREIVLSYFSPNSNLNQSIDNFVNMAFFADVPVTKVVEIHMELMDEFAKKLRVEGRSEDILQDYRLTLIDVIAHLCEMYRRSIPRET ; what binding result value has been reported?
binds
